Reported values: AC50 for Growth hormone secretagogue receptor type 1 (Homo sapiens, UniProt Q92847), one per item.
Property measured: AC50

[[record]]
compound = "CN(C)CCCN1c2ccccc2CCc2ccccc21 [IMIPRAMINE]"
target_desc = "Growth hormone secretagogue receptor type 1 (Homo sapiens, UniProt Q92847)"
result = "> 30 µM"

[[record]]
compound = "Fc1ccc([C@@H]2CCNC[C@H]2COc2ccc3c(c2)OCO3)cc1 [PAROXETINE]"
target_desc = "Growth hormone secretagogue receptor type 1 (Homo sapiens, UniProt Q92847)"
result = "> 30 µM"

[[record]]
compound = "C[C@@H]1C[C@H]2[C@@H]3C[C@H](F)C4=CC(=O)C=C[C@]4(C)[C@@]3(F)[C@@H](O)C[C@]2(C)[C@@]1(OC(=O)c1ccco1)C(=O)SCF [FLUTICASONE FUROATE]"
target_desc = "Growth hormone secretagogue receptor type 1 (Homo sapiens, UniProt Q92847)"
result = "> 10 µM"

[[record]]
compound = "O=C(NCCO[N+](=O)[O-])c1cccnc1 [NICORANDIL]"
target_desc = "Growth hormone secretagogue receptor type 1 (Homo sapiens, UniProt Q92847)"
result = "> 30 µM"

[[record]]
compound = "NS(=O)(=O)c1cc2c(cc1Cl)N=C(CSCc1ccccc1)NS2(=O)=O [BENZTHIAZIDE]"
target_desc = "Growth hormone secretagogue receptor type 1 (Homo sapiens, UniProt Q92847)"
result = "> 10 µM"

[[record]]
compound = "CC(C)(O/N=C(\\C(=O)N[C@@H]1C(=O)N2C(C(=O)[O-])=C(C[n+]3ccccc3)CS[C@H]12)c1csc(N)n1)C(=O)O [CEFTAZIDIME]"
target_desc = "Growth hormone secretagogue receptor type 1 (Homo sapiens, UniProt Q92847)"
result = "> 300 µM"

[[record]]
compound = "CN1CCN=C(c2ccccc2)c2cc(Cl)ccc21 [MEDAZEPAM]"
target_desc = "Growth hormone secretagogue receptor type 1 (Homo sapiens, UniProt Q92847)"
result = "> 30 µM"

[[record]]
compound = "CC(C)c1cccc(C(C)C)c1O [PROPOFOL]"
target_desc = "Growth hormone secretagogue receptor type 1 (Homo sapiens, UniProt Q92847)"
result = "> 30 µM"

[[record]]
compound = "O=C1OC(OC(=O)c2cccnc2Nc2cccc(C(F)(F)F)c2)c2ccccc21 (stereo not drawn) [TALNIFLUMATE]"
target_desc = "Growth hormone secretagogue receptor type 1 (Homo sapiens, UniProt Q92847)"
result = "> 30 µM"

[[record]]
compound = "COc1cc(C(=O)NS(=O)(=O)c2ccccc2C)ccc1Cc1cn(C)c2ccc(NC(=O)OC3CCCC3)cc12 [ZAFIRLUKAST]"
target_desc = "Growth hormone secretagogue receptor type 1 (Homo sapiens, UniProt Q92847)"
result = "> 10 µM"

[[record]]
compound = "NC(=O)NC(=O)Cc1ccccc1 [PHENACEMIDE]"
target_desc = "Growth hormone secretagogue receptor type 1 (Homo sapiens, UniProt Q92847)"
result = "> 10 µM"

[[record]]
compound = "C[C@]12C=CC(=O)C=C1CC[C@@H]1[C@@H]2CC[C@]2(C)OC(=O)CC[C@@H]12 [TESTOLACTONE]"
target_desc = "Growth hormone secretagogue receptor type 1 (Homo sapiens, UniProt Q92847)"
result = "> 10 µM"

[[record]]
compound = "CCOC(=O)C1=C(C)NC(C)=C(C(=O)OCC)C1c1ccccc1/C=C/C(=O)OC(C)(C)C [LACIDIPINE]"
target_desc = "Growth hormone secretagogue receptor type 1 (Homo sapiens, UniProt Q92847)"
result = "> 30 µM"

[[record]]
compound = "COc1ccc(CN2CCN(C(c3ccc(F)cc3)c3ccc(F)cc3)CC2)c(OC)c1OC [LOMERIZINE]"
target_desc = "Growth hormone secretagogue receptor type 1 (Homo sapiens, UniProt Q92847)"
result = "27 µM"

[[record]]
compound = "Cc1nc(Nc2ncc(C(=O)Nc3c(C)cccc3Cl)s2)cc(N2CCN(CCO)CC2)n1 [DASATINIB]"
target_desc = "Growth hormone secretagogue receptor type 1 (Homo sapiens, UniProt Q92847)"
result = "> 30 µM"

[[record]]
compound = "NNC(=O)c1ccncc1 [ISONIAZID]"
target_desc = "Growth hormone secretagogue receptor type 1 (Homo sapiens, UniProt Q92847)"
result = "> 30 µM"

[[record]]
compound = "CCC1(c2ccc(N)cc2)CCC(=O)NC1=O (stereo not drawn) [AMINOGLUTETHIMIDE]"
target_desc = "Growth hormone secretagogue receptor type 1 (Homo sapiens, UniProt Q92847)"
result = "> 30 µM"

[[record]]
compound = "c1ccc(C2(N3CCCCC3)CCCCC2)cc1 [PHENCYCLIDINE]"
target_desc = "Growth hormone secretagogue receptor type 1 (Homo sapiens, UniProt Q92847)"
result = "> 30 µM"


Data provenance: ChEMBL document CHEMBL5291721
